# stated_conditions: Day 23; G10-G16 groups; single IP 400 mg/kg; Mean±SEM
readout_label: Weight of mice, Day 23 (g)
One number for each entry, in g.

Below are worked cases with known answers.
molecule	Weight of mice, Day 23 / g
CCCCOC(=O)Nc1nc(=O)n([C@@H]2O[C@H](COC(=O)Cn3cnc([N+](=O)[O-])c3)C(O)C2(F)F)cc1I (stereo partly drawn) [Compound G12]	20.92
CCCCOC(=O)Nc1nc(=O)n(C2OC(COC(=O)COc3nc(Cl)c(Cl)cc3Cl)C(O)C2(F)F)cc1-c1cn(Cc2ccccc2)nn1 (stereo not drawn) [Compound G15]	22.15

In the following, a different molecule is considered.
Query block: Request the reported Weight of mice, Day 23 associated with O=C(COc1nc(Cl)c(Cl)cc1Cl)OC[C@H]1O[C@@H](n2cc(Br)c(NC(=O)OCc3ccccc3)nc2=O)C(F)(F)C1O (stereo partly drawn) [Compound G10]
Result block: 19.43
